The values you see were collected from patent US20040058984A1.

- experiment: HPLC RCP of 99mTc-depreotide with hydrophilic thioether additives (Example 8)
- Format: physicochemical
- assay setup: 99mTc-depreotide kit, additive 4 mg, heated prep, initial
observable: Initial RCP

molecule: CSCC[C@H](N)CO
observable: Initial RCP
experimental result: 94.1
//
molecule: CCSCCN [2-(Ethylthio)ethylamine]
observable: Initial RCP
experimental result: 92.8
//
molecule: CSCC[C@H](N)C(=O)O
observable: Initial RCP
experimental result: 95.0
//
molecule: CSCC(O)CO (stereo not shown)
observable: Initial RCP
experimental result: 89.1

====

- experiment: HPLC RCP of 99mTc-depreotide with hydrophilic thioether additives (Example 8)
- Type: physicochemical
- assay setup: 99mTc-depreotide
observable: effect on 99mTc-labelled peptide radiolabelling yield or stability

compound: C[S+]([O-])CC[C@H](N)C(=O)O (stereo partly drawn) [Methionine sulfoxide, reference compound]
experimental result: no effect
--
compound: CSCCC=O [3-(methylthio)propionaldehyde, reference compound]
experimental result: no effect
--
compound: CS(=O)(=O)CC[C@H](N)C(=O)O [methionine sulfone, reference compound]
experimental result: no effect

====

- experiment: HPLC RCP of 99mTc-depreotide with hydrophilic thioether additives (Example 8)
- Format: physicochemical
- assay setup: 99mTc-depreotide kit, additive 4 mg, heated prep, 6.5 hr
observable: 6.5 hr RCP

molecule: CSCC(O)CO (stereo not shown)
6.5 hr RCP: 80.9
//
molecule: CCSCCN [2-(Ethylthio)ethylamine]
6.5 hr RCP: 93.3
//
molecule: CSCC[C@H](N)CO
6.5 hr RCP: 90.7
//
molecule: CSCC[C@H](N)C(=O)O
6.5 hr RCP: 89.3

====

- experiment: HPLC RCP of 99mTc-depreotide with hydrophilic thioether additives (Example 8)
- Assay type: physicochemical
- assay setup: 99mTc-depreotide kit, additive 4 mg, heated prep, 3.5 hr
observable: 3.5 hr RCP

compound: CSCC[C@H](N)CO
3.5 hr RCP: 93.9
//
compound: CSCC(O)CO (stereo not shown)
3.5 hr RCP: 84.0
//
compound: CSCC[C@H](N)C(=O)O
3.5 hr RCP: 90.4
//
compound: CCSCCN [2-(Ethylthio)ethylamine]
3.5 hr RCP: 94.2
